- TARGET_SYSTEM: gamma-secretase (Homo sapiens, UniProt P49768, M146L)
- RUN_DESCRIPTION: β-amyloid cellular test: inhibition of production of β-A4 peptide, ELISA of cellular supernatants
- MEASUREMENT_CONTEXT: CHO-K1 line coexpressing CT100 of APP and PS1 M146L clone 30-12; 24-25 h incubation; secreted amyloid peptide by ELISA
- Source text: For the β-amyloid cellular test, the CHO—K1 line coexpressing the CT100 of APP and PS1 M146L clone 30-12 is used. The line targets the inhibition of gamma-secretase. […] The quantity of bound peptide is detected indirectly in the presence of a competitor which corresponds to the truncated peptide, peptide 1-28 coupled to biotin, which is then detected with streptavidin coupled to alkaline phosphatase. […]
MEASURED_METRIC: pEC50
Notebook: values listed as pEC50 are -log10 of the concentration (mol/L).

Examples with answers:
CCC[C@H](NC(=O)[C@@H](O)C(C)(C)C)C(=O)Nc1ncc(-c2nnnn2Cc2ccccc2)s1 [Compound 51] : 7.03
CCCC(NC(=O)C(O)c1cc(F)cc(F)c1)C(=O)Nc1nc(C)c(-c2nc(C)no2)s1 (stereo not shown) [Compound 40] : 7.07
CCC[C@H](NC(=O)[C@@H](O)C(C)(C)C)C(=O)Nc1nc(-c2nc3ccccc3o2)c(C(C)C)s1 [Compound 34] : 7.38

We next turn to a different compound, shown below.
Record request: pEC50 value, item CCC[C@H](NC(=O)[C@@H](O)C(C)(C)C)C(=O)Nc1nc(-c2nc(-c3ccccc3)no2)c(C(C)C)s1 [Compound 7]
7.28

Just for reference, patent US7759377B2 is where these values come from.
